Test system: Klebsiella aerogenes DSM 30053
Assay: growth (OD595) fold change vs plate DMSO controls (fold change (ratio)); higher = more growth
Conditions: incubation time: 27 h, anaerobic, 37 °C
Where a name gives a salt, the structure may show the parent alone.
growth below 1 gives false; growth at or above it gives true.

Recorded results for 2 compounds are shown here.
Nc1ccc(C(=O)NCC(=O)O)cc1 [Aminohippuric acid] (20 µM)
false
COc1ccc(C(Cl)=C(c2ccc(OC)cc2)c2ccc(OC)cc2)cc1 [Chlorotrianisene] (20 µM)
false

Assess whether reported growth for O=C1NCC2(CCN(CCc3ccccc3)CC2)O1 [Fenspiride hydrochloride] (20 µM) sits at 1 or higher.
true

Assess whether reported growth for Cc1ccc(-c2ncc(Cl)cc2-c2ccc(S(C)(=O)=O)cc2)cn1 [Etoricoxib] (20 µM) sits at 1 or higher.
true

Assess whether reported growth for Cc1cccc(C)c1OCC(C)N (stereo not drawn) [Mexiletine hydrochloride] (20 µM) sits at 1 or higher.
true

Assess whether reported growth for Cc1ccc2c(Cl)cc(Cl)c(O)c2n1 [Chlorquinaldol] (20 µM) sits at 1 or higher.
false

Assess whether reported growth for CCN(CC)C(=O)N1CCN(C)CC1 [Diethylcarbamazine citrate] (20 µM) sits at 1 or higher.
true

###

System: Escherichia coli IAI1
Test: fold change of Cadaverine concentration vs plate DMSO controls (fold change (ratio)); higher = more amine produced, active = hit call of the paper (significant change in both replicates, either direction)
Settings: incubation time: 27 h, anaerobic, 37 °C
EXPERIMENTAL_READOUT: fold change of Cadaverine concentration
Output: the number by itself.

// below: answered molecules
C[C@@H]1CCO[C@H]2Cn3cc(C(=O)NCc4ccc(F)cc4F)c(=O)c(O)c3C(=O)N12 [Dolutegravir] (20 µM)
0.984
CC(=O)Oc1cc(C(F)(F)F)ccc1C(=O)O [Triflusal] (20 µM)
0.988

Next up:
Field request: fold change of Cadaverine concentration | item: CN(c1nccc(=O)[nH]1)C1CCN(c2nc3ccccc3n2Cc2ccc(F)cc2)CC1 [Mizolastine] (20 µM)
0.977

###

Tested on: Escherichia coli IAI1
Assay: fold change of Cadaverine concentration vs plate DMSO controls (fold change (ratio)); higher = more amine produced, active = hit call of the paper (significant change in both replicates, either direction)
Details: incubation time: 27 h, anaerobic, 37 °C
fold change of Cadaverine concentration by entry:
Output: the number by itself.

Cc1cc(C#N)cc(C)c1Oc1nc(Nc2ccc(C#N)cc2)nc(N)c1Br [Etravirine] (20 µM)
1.04
CC(=O)[C@@]12O[C@](C)(c3ccccc3)O[C@@H]1C[C@H]1[C@@H]3CCC4=CC(=O)CC[C@]4(C)[C@H]3CC[C@@]12C [Algestone acetophenide] (20 µM)
0.955

Field request: fold change of Cadaverine concentration | item: CC(C)C(=O)c1c(C(C)C)nn2ccccc12 [Ibudilast] (20 µM)
0.987

Field request: fold change of Cadaverine concentration | item: CC(=O)CCCCn1c(=O)c2c(ncn2C)n(C)c1=O [Pentoxifylline] (20 µM)
1.04

Field request: fold change of Cadaverine concentration | item: N[C@@H](CSCCCO)C(=O)O [Fudosteine] (20 µM)
0.981

Field request: fold change of Cadaverine concentration | item: O=c1[nH]c(=O)n([C@H]2C[C@H](O)[C@@H](CO)O2)cc1/C=C/Br [Brivudine] (20 µM)
0.982

###

growth by entry:
Tested on: Klebsiella aerogenes DSM 30053
Assay: growth (OD595) fold change vs plate DMSO controls (fold change (ratio)); higher = more growth
Conditions: incubation time: 27 h, anaerobic, 37 °C
Counter-ions that a name gives are not always drawn.
Output: the number by itself.

// below: answered molecules
CC1(C)S[C@@H]2[C@H](NC(=O)[C@H](N)c3ccc(O)cc3)C(=O)N2[C@H]1C(=O)O [Amoxicillin] (20 µM)
0.828
CN1c2cc(O)c(N=NC(N)=O)cc2CC1S(=O)(=O)O (configuration not stated) [Carbazochrome sodium sulfonate] (20 µM)
1.04
CCC1(C)CC(=O)NC1=O (configuration not stated) [Ethosuximide] (20 µM)
1.07
CC(=O)Nc1nnc(S(N)(=O)=O)s1 [Acetazolamide] (20 µM)
1.04
C#CCN(C)CCCOc1ccc(Cl)cc1Cl [Clorgyline hydrochloride] (20 µM)
0.95

Field request: growth | item: Nc1nc(Cl)nc2c1ncn2[C@H]1C[C@H](O)[C@@H](CO)O1 [Cladribine] (20 µM)
1.06

Field request: growth | item: CCC[C@@H]1C[C@@H](C(=O)N[C@@H]([C@H]2O[C@H](SC)[C@H](OP(=O)(O)O)[C@@H](O)[C@H]2O)[C@H](C)Cl)N(C)C1 [Clindamycin Phosphate] (20 µM)
0.998

Field request: growth | item: COc1cc(C(=O)NC2CCCNC2)cc(OC)c1OC (configuration not stated) [Troxipide] (20 µM)
0.99

Field request: growth | item: O=C(Oc1cccc2cccnc12)c1ccccc1 [Benzoxiquine] (20 µM)
1.04

Field request: growth | item: CCN1CC(CCN2CCOCC2)C(c2ccccc2)(c2ccccc2)C1=O (configuration not stated) [Doxapram hydrochloride] (20 µM)
0.996

Field request: growth | item: COc1ccc2c(c1)c(CC(=O)O)c(C)n2C(=O)c1ccc(Cl)cc1 [Indomethacin] (20 µM)
1.02

Field request: growth | item: CCCCC(CC)CN1CN(CC(CC)CCCC)CC(C)(N)C1 (configuration not stated) [Hexetidine] (20 µM)
1.11

Field request: growth | item: CC(=O)OCC(=O)[C@@]1(O)CC[C@H]2[C@@H]3CCC4=CC(=O)C=C[C@]4(C)[C@@]3(Cl)[C@@H](Cl)C[C@@]21C [Dichlorisone acetate] (20 µM)
1

Field request: growth | item: CCCC(=O)OCOC(=O)C1=C(C)NC(C)=C(C(=O)OC)C1c1cccc(Cl)c1Cl (configuration not stated) [Clevidipine] (20 µM)
1.01

Field request: growth | item: CN1CCCN=C1/C=C/c1cccc(O)c1 [Oxantel pamoate] (20 µM)
1.03

Field request: growth | item: O=C(NCCO[N+](=O)[O-])c1cccnc1 [Nicorandil] (20 µM)
0.928

Field request: growth | item: CC1(C)S[C@@H]2[C@H](NC(=O)[C@H](NC(=O)N3CCNC3=O)c3ccccc3)C(=O)N2[C@H]1C(=O)O [Azlocillin sodium salt] (20 µM)
1.16

Field request: growth | item: CC1(C)NC(=O)N(c2ccc([N+](=O)[O-])c(C(F)(F)F)c2)C1=O [Nilutamide] (20 µM)
0.999

Field request: growth | item: C#CCN(C)Cc1ccccc1 [Pargyline hydrochloride] (20 µM)
1.03

Field request: growth | item: O=C(O)Cc1csc(-c2ccc(Cl)cc2)n1 [Fenclozic acid] (20 µM)
0.979

Field request: growth | item: CN1CCCN=C1/C=C/c1cccs1 [Pyrantel tartrate] (20 µM)
1.1

###

growth by entry:
Test system: Escherichia coli IAI1
Experiment: growth (OD595) fold change vs plate DMSO controls (fold change (ratio)); higher = more growth
Settings: incubation time: 27 h, anaerobic, 37 °C
Output: the number by itself.

// below: answered molecules
c1ccc2cc3c(ccc4ccccc43)cc2c1 [Benz[a]anthracene] (20 µM)
0.981
COc1ccccc1N1CCN(CCCCNC(=O)c2ccc3ccccc3c2)CC1 (20 µM)
0.976
CC1=Nc2ccc(Cl)cc2S(=O)(=O)N1 [Diazoxide] (20 µM)
1.01
COc1ccc(/C=C/C(=O)Nc2ccccc2C(=O)O)cc1OC [Tranilast] (20 µM)
1.07
COc1ccc(-c2cc(=O)c3c(O)cc(O[C@@H]4O[C@H](CO[C@@H]5O[C@@H](C)[C@H](O)[C@@H](O)[C@H]5O)[C@@H](O)[C@H](O)[C@H]4O)cc3o2)cc1O [Diosmin] (20 µM)
0.976
CC1(C)[C@@H](O[C@H]2O[C@H](C(=O)O)[C@@H](O)[C@H](O)[C@H]2O[C@@H]2O[C@H](C(=O)O)[C@@H](O)[C@H](O)[C@H]2O)CC[C@]2(C)[C@H]3C(=O)C=C4[C@@H]5C[C@@](C)(C(=O)O)CC[C@]5(C)CC[C@@]4(C)[C@]3(C)CC[C@@H]12 [Glycyrrhizic acid] (50 µM)
0.995
CN1CCC[C@@H]1Cc1c[nH]c2ccc(CCS(=O)(=O)c3ccccc3)cc12 [Eletriptan] (20 µM)
1.04

Next up:
Field request: growth | item: CC[C@@H]1C(=O)OC[C@@H]1Cc1cncn1C [Pilocarpine nitrate] (20 µM)
1

###

System: Clostridium sporogenes DSM 1664
Assay: growth (OD595) fold change vs plate DMSO controls (fold change (ratio)); higher = more growth
Conditions: incubation time: 27 h, anaerobic, 37 °C
growth by entry:
Output: the number by itself.

CC(=O)OC(C)C[N+](C)(C)C (centres undefined) [Methacholine chloride] (20 µM)
0.962

Next up:
Field request: growth | item: CN(C)CCc1c[nH]c2ccc(Cn3cncn3)cc12 [Rizatriptan benzoate] (20 µM)
0.987

Reference source: the supplement of paper PMC12494721
